Cited source: patent US6509356B1

System: MCF-7 breast adenocarcinoma cells
Experiment: MCF-7 Proliferation Assay (tritiated thymidine incorporation)
Format: cell-based
Condition label: Homo sapiens, MCF7; MCF-7 cells (ATCC HTB 22) in DCC-FBS assay medium, 48 hours with drug, then tritiated thymidine pulse for 4 hours; read-out: Inhibition of MCF7 cell proliferation: ED50
Where a name gives a salt, the structure may show the parent alone.
Observed property: EC50

See these solved cases before continuing.
• CCN(CC)CCCOc1ccc(Cc2c(-c3ccc(O)cc3)ccc3cc(O)ccc23)cc1 [Example 2, hydrochloride] = 0.9 nM
• O=C1CCCN1CCCOc1ccc(Cc2c(-c3ccc(O)cc3)ccc3cc(O)ccc23)cc1 = 30 nM

Hi! Can you tell me EC50 for each of these molecules?
1. CC1CN(CCOc2ccc(Cc3c(-c4ccc(O)cc4)ccc4cc(O)ccc34)cc2)CC(C)O1 (stereo not shown) [Example 13, hydrochloride]
2. CCN(CCOc1ccc(Cc2c(-c3ccc(O)cc3)ccc3cc(O)ccc23)cc1)C(=O)Nc1cc(Cl)ccc1C
3. CN1CCCC1COc1ccc(Cc2c(-c3ccc(O)cc3)ccc3cc(O)ccc23)cc1 (stereo not shown) [Example 1, hydrochloride]
4. O=C1CCCN1CCOc1ccc(Cc2c(-c3ccc(O)cc3)ccc3cc(O)ccc23)cc1
5. CN1CCCCC1COc1ccc(Cc2c(-c3ccc(O)cc3)ccc3cc(O)ccc23)cc1 (stereo not shown) [Example 4, hydrochloride]

1. 20 nM
2. 10 nM
3. 0.5 nM
4. 40 nM
5. 2 nM
